- Tested on: R848-induced IL-6 secretion in human peripheral blood mononuclear cells (PBMCs)
- Measurement Protocol: Inhibition of R848-induced IL-6 secretion in human PBMCs (IL-6 ELISA)
- Format: cell-based
- Condition Summary: PBMC, R848 2.5 μg/mL, 20 h pre-incubation, 24 h stimulation
Provide the reported pIC50 of each item.
Numbers only, as −log10 of the molar value.

INSERT INTO results (compound, target, property_measured, quantitative_readout) VALUES
  ('CN(C)c1cc2nn([C@H]3CC[C@H](CN4C[C@@H](n5cc6ccc(N7CCC(=O)NC7=O)cc6n5)[C@@H](F)C4)CC3)cc2cc1NC(=O)c1cnn2cccnc12', 'R848-induced IL-6 secretion in human peripheral blood mononuclear cells (PBMCs)', 'pIC50', 7.59);

Your task in this section: give pIC50 for each listed record.
1. CN(C)c1cc2nc([C@H]3CC[C@H](CN4C[C@@H](n5cc6cc(N7CCC(=O)NC7=O)ccc6n5)[C@@H](F)C4)CC3)cn2cc1NC(=O)c1cnn2cccnc12
2. CN(C)c1cc2nn([C@H]3CC[C@H](CN4CCC(n5cc6cc(N7CCC(=O)NC7=O)ccc6n5)CC4)CC3)cc2cc1NC(=O)c1cnn2cccnc12

[8.16, 8.45]

* * *

- Measurement Protocol: Metabolic stability in human liver microsome
- Assay type: in vitro ADME
- Condition Summary: liver microsomes, NADPH, 60 min, read-out: Human liver microsome (t1/2, min)
Exercise: state measured half-life at 1 µM for each of the molecules provided.
Your answer should be a number followed by the unit of measure.

INSERT INTO results (molecule, property_measured, result) VALUES
  ('CN(C)c1cc2nn([C@H]3CC[C@H](CN4C[C@@H](F)[C@H](n5cc6cc(C7CCC(=O)NC7=O)ccc6n5)C4)CC3)cc2cc1NC(=O)c1cnn2cccnc12 (stereo partly drawn) [TM-244]', 'half-life at 1 µM', '79.5 min');

Kindly give each listed record's half-life at 1 µM.
1. CN(C)c1cc2nn([C@H]3CC[C@H](CN4CC[C@H](n5cc6cc(C7CCC(=O)NC7=O)c(F)cc6n5)[C@H](F)C4)CC3)cc2cc1NC(=O)c1cnn2cccnc12 (stereo partly drawn) [TM-132]
2. CN(C)c1cc2nn([C@H]3CC[C@H](CN4CC[C@@H](n5cc6ccc(C7CCC(=O)NC7=O)cc6n5)[C@H](F)C4)CC3)cc2cc1NC(=O)c1cnn2cccnc12 (stereo partly drawn) [TM-152]

["93.1 min", "104 min"]

* * *

Field: log10 of DC50. Provide a value for each of the compounds that follow.
- Target: IRAK4 (Homo sapiens, UniProt Q9NWZ3)
- Construct: Effect of the Compounds on IRAK4 Protein Degradation in THP1 Cells; endogenous in cells; host or cells: THP-1 cells
- Sequence (Q9NWZ3 whole entry): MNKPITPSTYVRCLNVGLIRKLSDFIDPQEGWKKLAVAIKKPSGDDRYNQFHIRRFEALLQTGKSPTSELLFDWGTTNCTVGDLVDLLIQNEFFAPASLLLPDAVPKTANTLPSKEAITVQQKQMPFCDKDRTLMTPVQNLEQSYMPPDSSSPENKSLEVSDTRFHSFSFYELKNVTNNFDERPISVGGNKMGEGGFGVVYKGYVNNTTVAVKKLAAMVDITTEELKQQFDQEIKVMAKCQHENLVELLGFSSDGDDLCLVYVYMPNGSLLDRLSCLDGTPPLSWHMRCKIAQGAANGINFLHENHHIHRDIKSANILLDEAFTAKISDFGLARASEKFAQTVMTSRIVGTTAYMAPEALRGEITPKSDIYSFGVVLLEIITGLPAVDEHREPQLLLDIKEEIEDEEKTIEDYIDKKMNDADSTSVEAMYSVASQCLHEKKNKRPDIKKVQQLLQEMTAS
- Measurement Protocol: IRAK4 protein degradation in THP1 cells (Western blot)
- Assay type: cell-based
- Condition Summary: THP-1 cells, 24 h
Please keep in mind that the values are log10 of DC50 expressed in nM.

Recorded results for 4 compounds are shown here.
INSERT INTO measurements (compound, quantitative_readout) VALUES
  ('CN(C)c1cc2nn([C@H]3CC[C@H](CN4CC[C@H](n5cc6ccc(N7CCC(=O)NC7=O)cc6n5)[C@H](F)C4)CC3)cc2cc1NC(=O)c1cnn2cccnc12 [TM-32]', 0.15),
  ('CN(C)c1cc2nn([C@H]3CC[C@H](CN4CC[C@@H](n5cc6cc(N7CCC(=O)NC7=O)c(F)cc6n5)[C@@H](F)C4)CC3)cc2cc1NC(=O)c1cnn2cccnc12 [TM-42]', -0.03),
  ('CN(C)c1cc2nn([C@H]3CC[C@H](CN4CCC(n5cc6c(F)cc(N7CCC(=O)NC7=O)cc6n5)CC4)CC3)cc2cc1NC(=O)c1cnn2cccnc12 [TM-174]', 0.09),
  ('CN(C)c1cc2nc([C@H]3CC[C@H](CN4C[C@@H](n5cc6cc(N7CCC(=O)NC7=O)ccc6n5)[C@@H](F)C4)CC3)cn2cc1NC(=O)c1cnn2cccnc12 [TM-230]', 0.15);

Give measured log10 of DC50 for every item shown.
1. CN(C)c1cc2nn([C@H]3CC[C@H](CN4CCCN(c5nc6cc(N7CCC(=O)NC7=O)ccc6s5)CC4)CC3)cc2cc1NC(=O)c1cnn2cccnc12 [TM-59]
2. CN(C)c1cc2nn([C@H]3CC[C@H](CN4CC[C@H](n5cc6ccc(N7CCC(=O)NC7=O)cc6n5)[C@@H](F)C4)CC3)cc2cc1NC(=O)c1cnn2cccnc12 [TM-31]

[0.98, 0.61]

All values here come from patent US20260216348A1.
